System: aorta rings isolated from rats
Experiment summary: Isolated organ technique: relaxation of rat aorta rings pre-contracted in hyperpotassium solution (80 mM KCl)
Assay type: cell-based
Condition: Rattus norvegicus, with endothelium + L-NAME 10^-4 M, n=8; read-out: EC50, relaxation
Observable: pEC50
# pEC50: negative log10 of molar concentration; output just the value

# pEC50 lookup, item Oc1cc2cccc[n+]2c2c(Cl)cccc12.[Cl-]
4.29

----------
System: aorta rings isolated from rats
Experiment summary: Isolated organ technique: relaxation of rat aorta rings pre-contracted in hyperpotassium solution (80 mM KCl)
Format: cell-based
Condition: Rattus norvegicus, summary statement of results; read-out: EC50, vasorelaxant effect
Observable: EC50 (µM)
Please respond with the number in µM and leave the unit unwritten.

>>> value_observed("Oc1cc2cccc[n+]2c2c(Cl)cccc12.[Cl-] [MPB-07]")
134

Consider the record given below.
# EC50 lookup, item CCCCc1c(O)c2cccc(Cl)c2[n+]2ccccc12.[Cl-] [MPB-91]
21
